# measured-target: T1, ZFP SBS#1430 (synthetic)
# T1 chain: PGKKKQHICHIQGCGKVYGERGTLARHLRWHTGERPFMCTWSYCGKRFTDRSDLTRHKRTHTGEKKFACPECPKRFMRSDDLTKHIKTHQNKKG
# run-description: EMSA
# condition: tags: MBP fusion
pKd: −log10 of the molar value.
measured-property: pKd

{"binder": "TCGGCCGCC (dsDNA) DNA 1: TCGGCCGCC DNA 2: GGCGGCCGA", "experimental-value": 9.45}

These measurements were taken from patent US20030068675.
